test: Cytotoxicity against African green monkey Vero E6 cells assessed as cell growth inhibition measured after 48 hrs by CCK8 assay
Assay type: toxicity, cell-based, Vero C1008
cond: chlorocebus sabaeus
measured-parameter: CC50 at 48 h (µM)
Give the value, in units of µM, as a plain number.

Reference set, count: 3
>  <structure-smiles>
O=c1c2ccccc2[se]n1Cc1ccncc1

>  <CC50 at 48 h, µM>
55.7

$$$$
>  <structure-smiles>
O=c1c2ccccc2[se]n1C1CCN(S(=O)(=O)c2cccnc2)CC1

>  <CC50 at 48 h, µM>
13.3

$$$$
>  <structure-smiles>
CN(C)S(=O)(=O)Nc1ccc(-n2[se]c3ccccc3c2=O)cc1

>  <CC50 at 48 h, µM>
9.91

$$$$

Lab book: CC50 at 48 h of `O=c1c2ccccc2[se]n1-c1ccccc1` noted as 70.5

Lab book: CC50 at 48 h of `O=c1c2ccccc2[se]n1C1CCN(S(=O)(=O)C2CC2)CC1` noted as 27.5

###

test-system: UniProt P43235
test: Inhibition of human Cathepsin K at 20 uM measured after 30 mins by fluorescence based microplate reader analysis relative to control
Assay type: toxicity
cond: human Cathepsin K enzyme
measured-parameter: inhibition at 0.5 h, 20 µM

Sample records with inhibition at 0.5 h, 20 µM:
>  <structure-smiles>
CC(C)(F)C[C@H](N[C@@H](c1ccc(-c2ccc(S(C)(=O)=O)cc2)cc1)C(F)(F)F)C(=O)NC1(C#N)CC1

>  <inhibition at 0.5 h, 20 µM>
96%

$$$$
>  <structure-smiles>
CCOC(=O)c1ccc(-n2[se]c3ccccc3c2=O)cc1

>  <inhibition at 0.5 h, 20 µM>
5%

$$$$
>  <structure-smiles>
O=c1c2ccccc2[se]n1-c1ccccc1

>  <inhibition at 0.5 h, 20 µM>
38%

$$$$

Could you now look at the following compound, please?
The compound identified as `O=c1c2ccccc2[se]n1Cc1ccncc1` registered its inhibition at 0.5 h, 20 µM at 42%

###

test-system: Cathepsin B (Homo sapiens)
test: Inhibition of human Cathepsin B at 20 uM measured after 30 mins by fluorescence based microplate reader analysis relative to control
Type: toxicity
cond: human Cathepsin B enzyme
Where a SMILES comes first, the peptide text is derived from it.
measured-parameter: inhibition at 0.5 h, 20 µM (%)
Form entry: value (%) — number only.

Worked set:
>  <compound>
O=c1c2ccccc2[se]n1Cc1ccncc1

>  <measured-parameter>
inhibition at 0.5 h, 20 µM

>  <readout-number>
87

$$$$
>  <compound>
O=c1c2ccccc2[se]n1C1CCN(S(=O)(=O)c2cccnc2)CC1

>  <measured-parameter>
inhibition at 0.5 h, 20 µM

>  <readout-number>
4

$$$$
>  <compound>
O=c1c2ccccc2[se]n1-c1ccccc1

>  <measured-parameter>
inhibition at 0.5 h, 20 µM

>  <readout-number>
62

$$$$

Data point: CC(=O)N[C@@H](CC(C)C)C(=O)N[C@H](C(=O)N[C@H](C=O)CCCCN)C(C)C (Ac-Leu-Val-Lys-aldehyde) ; inhibition at 0.5 h, 20 µM = 99

###

Here we list molecules with their recorded pIC50 when tested on Replicase polyprotein 1ab (Severe acute respiratory syndrome coronavirus 2).
In textbook form, pIC50 equals minus log to base ten of the concentration in mol/L.

Solved cases (2 shown):
>  <structure-smiles>
CC(C)(C)OC(=O)N1CCC(n2[se]c3ccccc3c2=O)CC1

>  <readout-number>
6.38

$$$$
>  <structure-smiles>
O=c1c2ccccc2[se]n1Cc1ccccc1

>  <readout-number>
6.44

$$$$

Per the record, `O=c1c2ccccc2[se]n1Cc1cccnc1` has pIC50 of 6.34

GET /value?item= `O=c1c2ccccc2[se]n1Cc1ccncc1` &field=pIC50 returns 6.54

get_value(item= `O=c1c2ccccc2[se]n1-c1ccc(NS(=O)(=O)C2CC2)cc1` , readout=pIC50) returns 6.28

# pIC50 of `O=c1c2ccccc2[se]n1C1CCN(S(=O)(=O)C2CC2)CC1` = 6.45

Form: molecule = `Nc1ccc2c(=O)n(-c3ccccc3)[se]c2c1` ; pIC50 = 6.49

###

test-system: Cathepsin K (Homo sapiens, UniProt P43235)
Sequence (P43235 whole entry): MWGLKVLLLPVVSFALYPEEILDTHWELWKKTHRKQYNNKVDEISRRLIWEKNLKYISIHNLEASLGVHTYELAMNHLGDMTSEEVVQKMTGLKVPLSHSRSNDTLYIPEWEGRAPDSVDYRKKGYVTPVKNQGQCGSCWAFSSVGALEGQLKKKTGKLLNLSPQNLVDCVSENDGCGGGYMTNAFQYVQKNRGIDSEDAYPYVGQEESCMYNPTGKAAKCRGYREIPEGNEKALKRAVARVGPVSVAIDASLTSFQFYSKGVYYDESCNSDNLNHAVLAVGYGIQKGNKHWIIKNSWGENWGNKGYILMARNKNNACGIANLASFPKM
test: Inhibition of human Cathepsin K measured after 30 mins by fluorescence based microplate reader analysis relative to control
Type: toxicity
Each entry below carries its recorded IC50.

Worked cases, IC50 given:
>  <compound>
O=c1c2ccccc2[se]n1C1CCN(S(=O)(=O)c2cccnc2)CC1

>  <IC50>
> 20 µM

$$$$
>  <compound>
O=c1c2ccccc2[se]n1Cc1ccncc1

>  <IC50>
> 20 µM

$$$$

response.value for O=c1c2ccccc2[se]n1-c1ccccc1 [EBSELEN] (field: IC50) = > 20 µM

###

test-system: Replicase polyprotein 1ab (Severe acute respiratory syndrome coronavirus 2) (UniProt P0DTD1)
test: Inhibition of SARS-CoV-2 MPro using protease substrate at 1 uM preincubated with enzyme for 10 mins followed by substrate addition and measured after 5 mins by FRET based assay
cond: time 15.0 min
Below is a list of entries, each paired with its recorded inhibition value.

// solved cases for inhibition follow
>  <structure-smiles>
O=c1c2ccccc2[se]n1-c1ccc(NS(=O)(=O)C2CC2)cc1

>  <inhibition>
89.7%

$$$$
>  <structure-smiles>
Nc1ccc2[se]n(-c3ccccc3)c(=O)c2c1

>  <inhibition>
21.8%

$$$$
>  <structure-smiles>
O=C(Nc1ccc2c(=O)n(-c3ccccc3)[se]c2c1)c1cccs1

>  <inhibition>
38.9%

$$$$
>  <structure-smiles>
O=c1c2ccccc2[se]n1C1CCN(S(=O)(=O)c2cccc(Cl)c2)CC1

>  <inhibition>
24.7%

$$$$
>  <structure-smiles>
CCOC(=O)c1ccc(-n2[se]c3ccccc3c2=O)cc1

>  <inhibition>
68.4%

$$$$

# evaluate next
# inhibition of `O=c1c2ccccc2[se]n1Cc1ccc2ccccc2c1` = 34.6%

###

test-system: Replicase polyprotein 1ab (Severe acute respiratory syndrome coronavirus 2) (UniProt P0DTD1)
test: Inhibition of SARS-CoV-2 MPro using protease substrate at 1 uM preincubated with enzyme for 10 mins followed by substrate addition and measured after 5 mins by FRET based assay
cond: time 15.0 min
measured-parameter: inhibition

>  <structure-smiles>
O=C(Nc1ccc(-n2[se]c3ccccc3c2=O)cc1)C1CC1

>  <inhibition>
95.5%

$$$$
>  <structure-smiles>
CN(C)S(=O)(=O)Nc1ccc(-n2[se]c3ccccc3c2=O)cc1

>  <inhibition>
91.8%

$$$$
>  <structure-smiles>
Nc1ccc2c(=O)n(-c3ccccc3)[se]c2c1

>  <inhibition>
87%

$$$$
>  <structure-smiles>
O=c1c2ccccc2[se]n1Cc1ccccc1

>  <inhibition>
95.5%

$$$$
>  <structure-smiles>
O=c1c2ccccc2[se]n1C1CCN(S(=O)(=O)C2CC2)CC1

>  <inhibition>
96.2%

$$$$

Form field inhibition, entry `O=c1c2ccccc2[se]n1Cc1ccc2[nH]ccc2c1` : 32.6%

Lab book: inhibition of `O=c1c2ccc([N+](=O)[O-])cc2[se]n1-c1ccccc1` noted as 49.2%

Value of inhibition reported for the compound `O=c1c2ccccc2[se]n1Cc1ccncc1` is 97.4%

Note to self: inhibition recorded for `O=c1c2cc([N+](=O)[O-])ccc2[se]n1-c1ccccc1` was 18.8%

Entry `O=c1c2ccccc2[se]n1C1CCN(S(=O)(=O)c2cccs2)CC1` ; inhibition = 67.8%

Per the records, this compound ( `NS(=O)(=O)c1ccc(C(=O)N2CCC(n3[se]c4ccccc4c3=O)CC2)cc1` ) has inhibition equal to 88.3%

Reported inhibition for `O=C(OCc1ccccc1)N1CCC(n2[se]c3ccccc3c2=O)CC1` was 71.2%

// inhibition lookup, compound = `CC(C)(C)OC(=O)Nc1ccc(-n2[se]c3ccccc3c2=O)cc1` , result: 32.1%
